target-under-test: Recombinant human BRD4 containing dual bromodomains (BRD4-BD12 (1-477)) (Homo sapiens)
Construct: Recombinant human BRD4 containing dual bromodomains (BRD4-BD12 (1-477))
assay-name: BRD4 Alphascreen binding assay
pIC50: −log10 of the molar value.
parameter-measured: pIC50

Worked set:
| smiles-entry | target-under-test | pIC50 |
| --- | --- | --- |
| Cc1noc(C)c1-c1cnc2c(c1)c(-c1c(F)cc(C(=O)O)cc1OCC(F)F)cn2-c1cnc(N2CCC2)nc1 | Recombinant human BRD4 containing dual bromodomains (BRD4-BD12 (1-477)) (Homo sapiens) | 3.00 to 5.10 |
| Cc1noc(C)c1-c1cnc2c(c1)c(-c1ccc(C(=O)O)cc1OC(C)C)cn2C(C1CC1)C1CC1 | Recombinant human BRD4 containing dual bromodomains (BRD4-BD12 (1-477)) (Homo sapiens) | 3.00 to 5.10 |
| CCOc1cc(C(=O)O)nc(OCC)c1-c1cn(-c2cn(C(F)F)nc2C)c2ncc(-c3c(C)noc3C)cc12 | Recombinant human BRD4 containing dual bromodomains (BRD4-BD12 (1-477)) (Homo sapiens) | 3.00 to 5.10 |
| CCOc1cc(C(=O)O)cc(OCC)c1-n1cc(-c2cccc(Cl)c2)c2ncc(-c3c(C)noc3C)cc21 | Recombinant human BRD4 containing dual bromodomains (BRD4-BD12 (1-477)) (Homo sapiens) | 5.10 to 6.00 |

Kindly note the recorded pIC50 for Cc1noc(C)c1-c1cnc2c(c1)c(-c1ccc(C(=O)O)cc1OC(F)(F)F)cn2C1(C)CCOCC1 , which is 3.00 to 5.10

pIC50 measured on Cc1noc(C)c1-c1cnc2c(c1)c(-c1cccc(C(=O)O)c1)cn2C(C1CCC1)C1CCC1 = 5.10 to 6.00

Measured pIC50, CCOc1cc(C(=O)O)cc(OCC)c1-n1cc(Cc2ccccn2)c2ncc(-c3c(C)noc3C)cc21 : 3.00 to 5.10
